target: beta-catenin/TCF4 engagement (Homo sapiens, UniProt P35222); construct: expressed in transfected cells; host or cells: HEK293; experiment: Nano-BRET target engagement assay (B-cat-Halo & TCF4-Luc in HEK293 cells); format: cell-based; conditions: absolute IC50; read-out: NanoBRET Abs IC50
Sequence (P35222 whole entry): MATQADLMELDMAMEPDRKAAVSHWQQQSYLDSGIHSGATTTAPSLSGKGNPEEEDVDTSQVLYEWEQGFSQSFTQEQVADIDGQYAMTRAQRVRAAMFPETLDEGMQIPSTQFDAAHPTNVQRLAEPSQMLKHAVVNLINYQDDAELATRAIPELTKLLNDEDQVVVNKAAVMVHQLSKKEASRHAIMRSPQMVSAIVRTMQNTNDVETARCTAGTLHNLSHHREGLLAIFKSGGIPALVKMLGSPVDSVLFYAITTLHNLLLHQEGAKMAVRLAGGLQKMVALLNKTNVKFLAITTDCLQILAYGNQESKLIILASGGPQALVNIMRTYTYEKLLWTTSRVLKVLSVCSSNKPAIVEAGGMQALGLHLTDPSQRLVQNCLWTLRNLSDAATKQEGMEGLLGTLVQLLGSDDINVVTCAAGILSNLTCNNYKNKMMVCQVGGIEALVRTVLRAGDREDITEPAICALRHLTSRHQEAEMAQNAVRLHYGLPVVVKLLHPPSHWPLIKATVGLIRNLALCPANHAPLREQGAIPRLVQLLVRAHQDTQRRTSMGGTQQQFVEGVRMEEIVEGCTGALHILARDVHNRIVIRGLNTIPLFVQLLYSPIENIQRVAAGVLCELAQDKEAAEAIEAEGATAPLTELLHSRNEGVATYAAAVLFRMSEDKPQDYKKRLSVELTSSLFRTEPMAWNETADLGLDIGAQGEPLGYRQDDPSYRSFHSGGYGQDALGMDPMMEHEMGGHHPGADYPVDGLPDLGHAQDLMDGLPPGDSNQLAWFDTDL
MEASURE NAME: IC50 (µM)
Write the value in µM as a bare number.

Give IC50 for CC(=O)N1CCC[C@]12CC=CCCCC1(CCCC=CCCCOC(=O)N3CC[C@@](C(=O)N[C@@H](Cc4ccccc4C(F)(F)F)C(=O)N[C@@H](Cc4csc5ccccc45)C(=O)N[C@@H](CC(=O)N4CCN(C)CC4)C(N)=O)(C3)NC(=O)[C@H](CC(C)C)NC(=O)[C@H](Cc3ccccc3)NC(=O)[C@H](C)NC(=O)[C@H](C)NC(=O)[C@H](Cc3cccc(C(=O)O)c3)NC(=O)[C@H](CC(=O)O)NC1=O)NC(=O)[C@H](CC(C)(C)C)NC(=O)[C@H](CC(=O)O)NC2=O (some centres unmarked) [I-1612] 5.3
